System: NCI-H23 lung
PROTOCOL_SUMMARY: NCI-60 one-dose screen, 48 h (100 = growth as untreated, 0 = no growth, -100 = all killed)
MEASUREMENT_SETUP: 10 µM unless noted
This is part of a sample that, as a whole, favours compounds with a hit. Of some 83,000 tested, about 20% had one in any assay.
This listing pairs molecules with measured growth.
Report only the number, with the unit % understood.

Provide one value: measured growth of `S=C=Nc1ccc(N2CCOCC2)cc1`
92.1

Specify measured growth for `CC(C)c1ccc(C(=O)OC2CCCC2)cc1` .
100

Note down growth recorded for Oc1c(Cl)cc(Cl)cc1C=NCC1CCC(CN=Cc2cc(Cl)cc(Cl)c2O)CC1 (stereo unspecified)
102

Input `COc1cc(NC(=O)C2=C(C)NC(C)=C(C(=O)Nc3cc(OC)c(Cl)cc3OC)C2c2cccc([N+](=O)[O-])c2)c(OC)cc1Cl` , output reported growth.
34.6

Give the value of growth reported for the following: `COc1ccc(NC(=O)/C(=C/N2C(=O)/C(=C/c3ccc(OC)c(OC)c3)NC2=S)C(C)=O)cc1`
64.5

Now for a further molecule.
Return the recorded growth value; entry: `O=C(CBr)c1ccc(OC(=O)c2ccccc2)cc1`
101
